targetUnderTest: human Bradykinin B1 receptor (Homo sapiens)
Sequence (P46663 whole entry): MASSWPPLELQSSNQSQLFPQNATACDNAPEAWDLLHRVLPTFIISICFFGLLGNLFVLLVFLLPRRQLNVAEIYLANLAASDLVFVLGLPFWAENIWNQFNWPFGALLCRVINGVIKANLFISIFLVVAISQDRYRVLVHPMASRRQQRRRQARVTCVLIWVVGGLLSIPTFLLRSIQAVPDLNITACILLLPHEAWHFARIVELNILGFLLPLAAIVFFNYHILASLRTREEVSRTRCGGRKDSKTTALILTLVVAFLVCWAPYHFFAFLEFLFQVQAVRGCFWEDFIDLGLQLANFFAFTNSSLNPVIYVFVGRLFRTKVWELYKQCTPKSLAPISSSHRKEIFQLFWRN
experimentalDetails: Calcium flux assay (FLIPR), CHO-K1 cells expressing human Bradykinin B1 receptor, absence of 0.1% BSA (hB1 free IC50)
conditionSet: absence of 0.1% BSA in assay buffer
quantityMeasured: IC50 (nM)

P = O=C(O)c1cc(NC(=O)C2(c3cc(F)cc(Cl)c3)CC2)ccc1-c1cnn(C2CCC2)c1
Q = O=C(O)c1cc(NC(=O)C2(c3ccc(C(F)(F)F)cc3F)CC2)ccc1-c1cnc(C2CCCC2)s1
R = CCC(F)(F)c1ccc(-c2c(Cl)cc(NC(=O)C3(c4ccc(OC(F)(F)F)cc4F)CC3)cc2C(=O)O)cn1
-- ask Order the 3 listed items from lowest to highest according to IC50. Answer by naming the labels in the order asked.
-- reply Q, R, P
(Q: 3.4 nM, R: 8.4 nM, P: 840 nM)
